Target: FimH-CRD (Escherichia coli)
Construct: The first 177 amino acids of the FimH protein; thrombin tag (printed as 'fusion protein with thrombin') (cleaved yes)
Test: Competitive binding assay by fluorescence polarization, assay 1 (compounds prepared by manual serial dilution)
pIC50: −log10 of the molar value.
This section presents compounds with their documented pIC50 values.

CHEMICAL STRING: Cn1nc(C(F)(F)F)cc1-c1cccc([C@H]2O[C@H](CO)[C@@H](O)[C@H](O)[C@@H]2O)c1
TGT: FimH-CRD (Escherichia coli)
pIC50: 6.80
//
CHEMICAL STRING: OC[C@H]1O[C@H](c2cccc(-c3ccc4[nH]ccc4c3)c2)[C@@H](O)[C@@H](O)[C@@H]1O
TGT: FimH-CRD (Escherichia coli)
pIC50: 6.51
//
CHEMICAL STRING: OC[C@H]1O[C@H](c2cccc(-c3ccc4c(c3)OCO4)c2)[C@@H](O)[C@@H](O)[C@@H]1O
TGT: FimH-CRD (Escherichia coli)
pIC50: 7.06
//
CHEMICAL STRING: CN(C)Cc1ccccc1-c1cccc([C@H]2O[C@H](CO)[C@@H](O)[C@H](O)[C@@H]2O)c1
TGT: FimH-CRD (Escherichia coli)
pIC50: 6.26

---

Molecular target: FimH-CRD (Escherichia coli, UniProt P08191)
Construct: The first 177 amino acids of the FimH protein; thrombin tag (printed as 'fusion protein with thrombin') (cleaved yes); made in house; host or cells: bacteria (pET21b plasmid)
Sequence (P08191 22-177): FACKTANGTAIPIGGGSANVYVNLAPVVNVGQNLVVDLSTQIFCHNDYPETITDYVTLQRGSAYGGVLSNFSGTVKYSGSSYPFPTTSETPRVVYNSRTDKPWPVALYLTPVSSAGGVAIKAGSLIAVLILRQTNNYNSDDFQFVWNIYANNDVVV
Assay: Competitive binding assay by fluorescence polarization, assay 1 (compounds prepared by manual serial dilution)
Experimental: The first 177 amino acids of the FimH protein were expressed as a fusion protein with thrombin in a pET21b plasmid in bacteria. This FimH protein sequence contains the carbohydrate recognition domain (CRD) and shall be termed FimH-CRD. […] A competitive binding assay by fluorescence polarization was performed using 5 nM of the Alexa 647 mannoside probe and 60 nM of the FimH-CRD. […]
pKd: −log10 of the molar value.
VALUE TYPE: pKd

MOLECULE: CCCOc1ccc(F)c(-c2cccc([C@H]3O[C@H](CO)[C@@H](O)[C@H](O)[C@@H]3O)c2)c1 [Compound 19]
VALUE RELATION SIGN: =
EXPERIMENTAL RESULT: 8.21
--
MOLECULE: COC(=O)c1ccc(Oc2ccc([C@H]3O[C@H](CO)[C@@H](O)[C@H](O)[C@@H]3O)cc2)cc1 [Compound 54]
VALUE RELATION SIGN: >
EXPERIMENTAL RESULT: 8.30
--
MOLECULE: OC[C@H]1O[C@H](c2cccc(/C=C\c3ccccc3)c2)[C@@H](O)[C@@H](O)[C@@H]1O [Compound 139]
VALUE RELATION SIGN: >
EXPERIMENTAL RESULT: 8.30
--
MOLECULE: COC(=O)c1ccc(CCC[C@H]2O[C@H](CO)[C@@H](O)[C@H](O[C@H]3O[C@H](CO)[C@@H](O)[C@H](O)[C@@H]3O)[C@@H]2O)cc1 [Compound 283]
VALUE RELATION SIGN: =
EXPERIMENTAL RESULT: 7.97
--
MOLECULE: OC[C@H]1O[C@H](O[C@@H]2[C@H](O)[C@@H](c3cccc(OCCF)c3)O[C@H](CO)[C@H]2O)[C@@H](O)[C@@H](O)[C@@H]1O [Compound 287]
VALUE RELATION SIGN: =
EXPERIMENTAL RESULT: 7.49
--
MOLECULE: O=C(NCCc1ccccc1)c1cccc([C@H]2O[C@H](CO)[C@@H](O)[C@H](O)[C@@H]2O)c1 [Compound 34]
VALUE RELATION SIGN: =
EXPERIMENTAL RESULT: 7.42
--
MOLECULE: OC[C@H]1O[C@H](c2cccc(-c3cncnc3)c2)[C@@H](O)[C@@H](O)[C@@H]1O [Compound 10]
VALUE RELATION SIGN: =
EXPERIMENTAL RESULT: 7.87
--
MOLECULE: C[C@@H](NC(=O)Oc1cccc([C@H]2O[C@H](CO)[C@@H](O)[C@H](O)[C@@H]2O)c1)c1ccccc1 [Compound 72]
VALUE RELATION SIGN: =
EXPERIMENTAL RESULT: 7.79
--
MOLECULE: CS(=O)(=O)c1ccc(-c2cccc([C@H]3O[C@H](CO)[C@@H](O)[C@H](O[C@H]4O[C@H](CO)[C@@H](O)[C@H](O)[C@@H]4O)[C@@H]3O)c2)cc1 [Compound 276]
VALUE RELATION SIGN: =
EXPERIMENTAL RESULT: 7.95
--
MOLECULE: OC[C@H]1O[C@H](O[C@@H]2[C@H](O)[C@@H](c3cccc(C4CCCCC4)c3)O[C@H](CO)[C@H]2O)[C@@H](O)[C@@H](O)[C@@H]1O [Compound 278]
VALUE RELATION SIGN: =
EXPERIMENTAL RESULT: 7.90
--
MOLECULE: CNC(=O)c1cccc(Oc2ccc([C@H]3O[C@H](CO)[C@@H](O)[C@H](O)[C@@H]3O)cc2)c1 [Compound 292]
VALUE RELATION SIGN: =
EXPERIMENTAL RESULT: 8.22
--
MOLECULE: CNC(=O)c1cccc(Oc2cccc([C@H]3O[C@H](CO)[C@@H](O)[C@H](O)[C@@H]3O)c2)c1 [Compound 5]
VALUE RELATION SIGN: >
EXPERIMENTAL RESULT: 8.30
--
MOLECULE: Cc1cc(C)cc(Oc2cccc([C@H]3O[C@H](CO)[C@@H](O)[C@H](O[C@H]4O[C@H](CO)[C@@H](O)[C@H](O)[C@@H]4O)[C@@H]3O)c2)c1 [Compound 274]
VALUE RELATION SIGN: =
EXPERIMENTAL RESULT: 7.37

---

Target: FimH-CRD (Escherichia coli, UniProt P08191)
Construct: The first 177 amino acids of the FimH protein; thrombin tag (printed as 'fusion protein with thrombin') (cleaved yes); made in house; host or cells: bacteria (pET21b plasmid)
Assay: Competitive binding assay by fluorescence polarization, assay 2 (compounds prepared by robotics, plates frozen and thawed)
pKd: −log10 of the molar value.
This section presents compounds with their documented pKd values.

COMPOUND: COC(=O)c1cc(C(=O)OC)cc(-c2cccc([C@H]3O[C@H](CO)[C@@H](O)[C@H](O)[C@@H]3O)c2)c1
pKd: 8.12
--
COMPOUND: CNC(=O)Cc1nnc(-c2ccc(-c3cccc([C@H]4O[C@H](CO)[C@@H](O)[C@H](O)[C@@H]4O)c3)cc2)o1
pKd: 7.66
--
COMPOUND: COC(=O)c1ccc(C#Cc2ccc([C@H]3O[C@H](CO)[C@@H](O)[C@H](O)[C@@H]3O)cc2)cc1
pKd: 7.84
--
COMPOUND: CNC(=O)c1ccc(OCc2cccc([C@H]3O[C@H](CO)[C@@H](O)[C@H](O)[C@@H]3O)c2)cc1
pKd: 7.51
--
COMPOUND: COC(=O)c1cccc(Cn2cc(-c3ccc([C@H]4O[C@H](CO)[C@@H](O)[C@H](O)[C@@H]4O)cc3)nn2)c1
pKd: 7.91
--
COMPOUND: COC(=O)COc1cccc([C@H]2O[C@H](CO)[C@@H](O)[C@H](O[C@H]3O[C@H](CO)[C@@H](O)[C@H](O)[C@@H]3O)[C@@H]2O)c1
pKd: 7.45
--
COMPOUND: OC[C@H]1O[C@H](c2cccc(Oc3ccncc3)c2)[C@@H](O)[C@@H](O)[C@@H]1O
pKd: 7.88
--
COMPOUND: Nc1ccc(Oc2cccc([C@H]3O[C@H](CO)[C@@H](O)[C@H](O)[C@@H]3O)c2)cn1
pKd: 7.50
--
COMPOUND: CNC(=O)c1ccc(COc2ccc(C3O[C@H](CO)[C@@H](O)[C@H](O)[C@@H]3O)cc2)cc1 (some centres unmarked)
pKd: 7.71
--
COMPOUND: C#Cc1cc([C@H]2O[C@H](CO)[C@@H](O)[C@H](O)[C@@H]2O)ccc1OC
pKd: 7.40
--
COMPOUND: OC[C@H]1OC(c2cccc(OCc3ccccc3)c2)[C@@H](O)[C@@H](O)[C@@H]1O (some centres unmarked)
pKd: 7.39
--
COMPOUND: CNC(=O)c1cc(/C=C\c2cccc([C@H]3O[C@H](CO)[C@@H](O)[C@H](O)[C@@H]3O)c2)cc(C(=O)NC)c1
pKd: 7.65
--
COMPOUND: Cc1ccc(-c2nnc(-c3ccc(-c4cccc([C@H]5O[C@H](CO)[C@@H](O)[C@H](O)[C@@H]5O)c4)cc3)o2)o1
pKd: 7.88
--
COMPOUND: Cc1cnc(-c2ccc(-c3cccc([C@H]4O[C@H](CO)[C@@H](O)[C@H](O)[C@@H]4O)c3)cc2)o1
pKd: 7.68
